- MEASURED_ON: CRD3-4
- Sequence (chain, as listed by the source limits assumed): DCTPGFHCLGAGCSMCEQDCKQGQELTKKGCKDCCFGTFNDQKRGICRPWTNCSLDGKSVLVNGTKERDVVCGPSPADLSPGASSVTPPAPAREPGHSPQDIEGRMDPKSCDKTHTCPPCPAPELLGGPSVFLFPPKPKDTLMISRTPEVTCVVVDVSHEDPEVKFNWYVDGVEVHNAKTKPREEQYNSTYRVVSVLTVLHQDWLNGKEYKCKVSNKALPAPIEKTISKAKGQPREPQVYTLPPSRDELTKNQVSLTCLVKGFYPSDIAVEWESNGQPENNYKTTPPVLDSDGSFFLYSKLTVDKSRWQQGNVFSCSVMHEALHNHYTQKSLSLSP
- METHOD_DESCRIPTION: ELISA, coated CD137-Fc protein 2 µg/mL, antibody 10 or 5 µg/mL; absorbance 620 nm divided by that of the uncoated well
ASSAY_READOUT: Ratio with respect to Non-Coating
Reply with the value as a number alone.

R8 (antibody, V domains shown) VH: QVQLQESGPGLVKPSETLSLTCAVSGYSISSGYYWGWIRQPPGKGLEWIGSIYHSGSTYYNPSLKSRVTISVDTSKNQFSLKLSSVTAADTAVYYCARQHSFTRYYGYYYFDYWGQGTTVTVSS VL: DIQMTQSPSSLSASVGDRVTITCRASQSISSYLNWYQQKPGKAPKLLIYAASSLQSGVPSRFSGSGSGTDFTLTISSLQPEDFATYYCLQSDSIPLTFGGGTKVEIK    2.3
R11 (antibody, V domains shown) VH: QVQLLESGGGLVQPGGSLRLSCAASGFTFSSYAMSWVRQAPGKGLEWVSAISGSGGSTYYADSVKGRFTISRDNSKNTLYLQMNSLRAEDTAVYYCARDKWYYYPALDYWGQGTLVTVSS VL: DIQMTQSPSSLSASVGDRVTITCRASQSISSYLNWYQQKPGKAPKLLIYAASSLQSGVPSRFSGSGSGTDFTLTISSLQPEDFATYYCQQFSRFPLTFGGGTKVEIK    1.4
R14 (antibody, V domains shown) VH: QVQLLESGGGLVQPGGSLRLSCAASGFTFSSYAMSWVRQAPGKGLEWVSAISGSGGSTYYADSVKGRFTISRDNSKNTLYLQMNSLRAEDTAVYYCARDKWYYYPALDYWGQGTLVTVSS VL: DIQMTQSPSSLSASVGDRVTITCRASQSISSYLNWYQQKPGKAPKLLIYAASSLQSGVPSRFSGSGSGTDFTLTISSLQPEDFATYYCLQVYRSPLTFGGGTKVEIK    1.3

Now consider the entry below.
-- ask What value of Ratio with respect to Non-Coating has been recorded for this entry: R13 (antibody, V domains shown) VH: QVQLVESGGGLVQPGGSLRLSCAASGFTFSYYDIQWVRQAPGKGLEWVSSISPSGQSTYYRREVKGRFTISRDNSKNTLYLQMNSLRAEDTAVYYCARRTGREYGGGWYFDYWGQGTLVTVSS VL: DIQMTQSPSSLSASVGDRVTITCRASQSISSYLNWYQQKPGKAPKLLIYAASSLQSGVPSRFSGSGSGTDFTLTISSLQPEDFATYYCQQFSRFPLTFGGGTKVEIK
-- reply 0.2
